tested.target: Factor X (FX), P00742
Sequence (P00742 whole entry, looked up): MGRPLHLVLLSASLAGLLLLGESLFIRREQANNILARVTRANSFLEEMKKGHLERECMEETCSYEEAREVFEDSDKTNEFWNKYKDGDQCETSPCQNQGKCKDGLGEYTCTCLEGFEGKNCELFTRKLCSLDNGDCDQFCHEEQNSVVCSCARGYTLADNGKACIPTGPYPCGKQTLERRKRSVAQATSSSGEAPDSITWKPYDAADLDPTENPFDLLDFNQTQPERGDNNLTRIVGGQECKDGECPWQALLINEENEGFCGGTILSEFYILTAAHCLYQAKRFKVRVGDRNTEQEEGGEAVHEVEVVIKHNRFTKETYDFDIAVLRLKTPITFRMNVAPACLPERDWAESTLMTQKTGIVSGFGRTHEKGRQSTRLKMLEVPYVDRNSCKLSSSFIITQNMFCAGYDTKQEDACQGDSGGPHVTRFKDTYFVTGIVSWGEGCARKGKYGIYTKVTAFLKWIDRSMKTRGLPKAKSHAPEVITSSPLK
result.type: KM of FX activation by FIXa in the Xase complex (FVIIIa, PC/PS vesicles, Ca2+)

| protein | result.value |
| --- | --- |
| FIXa variant R338E/R403E/E410N (mature FIX numbering) (protein) chain 1: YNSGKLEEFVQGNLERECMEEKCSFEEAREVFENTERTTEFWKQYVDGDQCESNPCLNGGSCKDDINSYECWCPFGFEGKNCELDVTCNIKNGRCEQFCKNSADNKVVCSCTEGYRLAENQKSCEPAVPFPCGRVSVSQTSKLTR chain 2: VVGGEDAKPGQFPWQVVLNGKVDAFCGGSIVNEKWIVTAAHCVETGVKITVVAGEHNIEETEHTEQKRNVIRIIPHHNYNAAINKYNHDIALLELDEPLVLNSYVTPICIADKEYTNIFLKFGSGYVSGWGRVFHKGRSALVLQYLRVPLVDRATCLESTKFTIYNNMFCAGFHEGGRDSCQGDSGGPHVTEVEGTSFLTGIISWGEECAMKGKYGIYTKVSEYVNWIKNKTKLT | 0.0367 µM |
